Each item that follows carries a reported pEC50.
# targetSystem: T1, human IGSF11 (VSIG3) on cells (human, UniProt Q5DX21 23-431)
# T1 sequence: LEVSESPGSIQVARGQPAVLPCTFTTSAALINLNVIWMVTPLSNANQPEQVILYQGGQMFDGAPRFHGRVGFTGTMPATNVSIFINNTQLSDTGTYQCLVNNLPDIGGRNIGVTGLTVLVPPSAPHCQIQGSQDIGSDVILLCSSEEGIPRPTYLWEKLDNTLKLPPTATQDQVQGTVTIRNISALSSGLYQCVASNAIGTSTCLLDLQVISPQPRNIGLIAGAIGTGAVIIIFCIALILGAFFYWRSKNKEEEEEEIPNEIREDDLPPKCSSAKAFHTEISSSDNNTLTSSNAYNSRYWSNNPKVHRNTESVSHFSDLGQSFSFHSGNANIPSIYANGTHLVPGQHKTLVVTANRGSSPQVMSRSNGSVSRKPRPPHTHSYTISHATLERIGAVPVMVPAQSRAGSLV
# experimentalProtocol: FACS, DMS 273 cells
pEC50: −log10 of the molar value.
valueType: pEC50

[[record]]
binder = "A-012 (IgG1 format) (antibody, V domains shown, human IgG1 format) VH: EVQLLESGGGLIQPGGSLRLSCAVSGFTVSSNYMSWVRQAPGKGLEWVSVIYSGGSTYYADSVKGRFTISRDNSKNTLYLQMNSLRAEDTAVYYCARGNPYYYGDLQVNFDYWGQGTLVTVSS VL: QAVVTQEPSLTVSPGGTVTLTCASSTGAVTSGYYPNWFQQKPGQAPRALIYSTSNKHSWTPARFSGSLLGGKAALTLSGVQPEDEAEYYCLLYYGGAWVFGGGTKLTVL"
recordedmeasurement = "7.30 to 8.00"

[[record]]
binder = "A-024 (IgG1 format) (antibody, V domains shown, also called A-024-like ABP) VH: QMQLVQSGAEVKKPGSSVKVSCKASGGTFSSYAISWVRQAPGQGLEWMGWISAYNGNTNYAQKLQGRVTMTTDTSTSTAYMELRSLRSDDTAVYYCASLGSYGYTGAFDIWGQGTMATVSS VL: QSALTQPASVSGSPGQSITISCTGTSSDVGGYNYVSWYQQHPGKAPKLMIYEVSNRPSGVSNRFSGSKSGNTASLTISGLQAEDEADYYCSSYTSSSTLVVFGGGTKLTVL"
recordedmeasurement = "> 8.00"

[[record]]
binder = "A-006 (IgG1 format) (antibody, V domains shown, human IgG1 format; also called A-006-like ABP) VH: EVQLVESGGGLIQPGGSLRLSCAASGFTVSSNYMSWVRQAPGKGLEWVSVIYSGGSTYYADSVKGRFTISRDNSKNTLYLQMNSLRAEDTAVYYCARGNPYYYGDLQVNFDYWGQGTLVTVSS VL: QAVVTQEPSLTVSPGGTVTLTCASSTGAVTSGYYPNWFQQKPGQAPRPLIYSTSNKHSWTPARFSGSLLGGKAALTLSGVQPDDEAEYYCLLYYGGDWVFGGGTKLTVL"
recordedmeasurement = "< 7.30"


Data provenance: patent US20240010720A1
